Cited source: the supplement of paper PMC6757056

B1: library; a variant is named by its letters at N, in order (parent)
chain: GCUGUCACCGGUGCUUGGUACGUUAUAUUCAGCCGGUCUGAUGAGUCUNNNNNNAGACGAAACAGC

Variants of: B1
Assay: normalized RNA/DNA level with ligand (relative to sTRSVctl = 100) (log10 (% of sTRSVctl)); HEK293T overexpressing SLC46A1; ligand concentration (+) RNA-Seq: 6 mM; higher = less ribozyme self-cleavage, higher mRNA level
Conditions: with (6R,S)-folinic acid; ligand present: yes
# normalized RNA/DNA level with ligand (log10) listing for each entry below
Output spec: single numeric token, no unit.

Please review the following examples before continuing.
INSERT INTO measurements (seq_string, result) VALUES
  ('GCUGUCACCGGUGCUUGGUACGUUAUAUUCAGCCGGUCUGAUGAGUCUAUACAAAGACGAAACAGC [AUACAA]', 1.99),
  ('GCUGUCACCGGUGCUUGGUACGUUAUAUUCAGCCGGUCUGAUGAGUCUUUGCGAAGACGAAACAGC [UUGCGA]', 2.02),
  ('GCUGUCACCGGUGCUUGGUACGUUAUAUUCAGCCGGUCUGAUGAGUCUAGUUAAAGACGAAACAGC [AGUUAA]', 1.99),
  ('GCUGUCACCGGUGCUUGGUACGUUAUAUUCAGCCGGUCUGAUGAGUCUAGGGCUAGACGAAACAGC [AGGGCU]', 2.05),
  ('GCUGUCACCGGUGCUUGGUACGUUAUAUUCAGCCGGUCUGAUGAGUCUACGGGUAGACGAAACAGC [ACGGGU]', 2.04);

The variant GCUGUCACCGGUGCUUGGUACGUUAUAUUCAGCCGGUCUGAUGAGUCUUCAGAUAGACGAAACAGC [UCAGAU] showed normalized RNA/DNA level with ligand (log10) equal to 2.01

Record GCUGUCACCGGUGCUUGGUACGUUAUAUUCAGCCGGUCUGAUGAGUCUGGCCGCAGACGAAACAGC [GGCCGC] . Reported normalized RNA/DNA level with ligand (log10): 2.08

For record GCUGUCACCGGUGCUUGGUACGUUAUAUUCAGCCGGUCUGAUGAGUCUGCGGGCAGACGAAACAGC [GCGGGC] the listed normalized RNA/DNA level with ligand (log10) is 1.96
